src = paper PMC3469418

Below is a list of entries, each paired with its recorded pKd value.
# targetEntity: Corto chromodomain (GST-CortoCD) (Drosophila melanogaster)
# Construct: Over-expression of the Corto chromodomain (CortoCD); made in house
# Sequence (P41046 127-203 limits assumed): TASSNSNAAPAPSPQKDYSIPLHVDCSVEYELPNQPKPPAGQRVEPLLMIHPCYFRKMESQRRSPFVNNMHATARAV
# method: Biacore real-time binding of peptides to immobilized GST-CortoCD
pKd: −log10 of the molar value. Where no end group is shown, it is not given here.

For record PPKFDPTEVKLVYLRCVGGEVGA [RpL12um] the listed pKd is < 3.70

For record H-PPAFDPTEVKLVYLRCVGGEVGA-OH [RpL12K3A] the listed pKd is < 3.70

* * *

Below is a list of entries, each paired with its recorded pKd value.
# targetEntity: HP1 chromodomain (GST-HP1CD) (Drosophila melanogaster, UniProt P05205)
# Sequence (P05205 24-82 limits assumed): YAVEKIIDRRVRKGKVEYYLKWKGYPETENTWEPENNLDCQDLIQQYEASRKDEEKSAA
# method: Biacore real-time binding of peptides to immobilized GST-HP1CD
# measurementParameters: >200 µM = no specific interaction; read-out: KD for HP1CD
pKd: −log10 of the molar value. Where no end group is shown, it is not given here.

Assay HP1 chromodomain (GST-HP1CD) (Drosophila melanogaster, UniProt P05205), sample PPKFDPTEVKLVYLRCVGGEVGA [RpL12um] , pKd read: < 3.70

Assay HP1 chromodomain (GST-HP1CD) (Drosophila melanogaster, UniProt P05205), sample H-PPAFDPTEVKLVYLRCVGGEVGA-OH [RpL12K3A] , pKd read: < 3.70
